experiment: Pharmacokinetics in mice after intraperitoneal or oral administration; type: in vivo; settings: mouse, blood, oral (PO)
Measured Property: Cmax (nM)

molecule="CCCCC(=O)N1c2ccccc2NC2=C(C(=O)CCC2)C1c1ccccc1Cl (stereo not shown) [RBC10]" measured_property=Cmax reported_measurement=2300

Values from patent US10689392B2
